Please respond with reported koff for every item in the list.
target: T1, human IL-8 (human, UniProt P10145 23-99, limits assumed); experiment: SPR Biacore T200, Protein A/G capture, pH 5.8, 37C;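 also: antibodies captured by Protein A/G amine-coupled onto a CM4 sensor chip, with kinetic parameters derived using Biacore T200 Evaluation Software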
T1 construct: also called hIL-8; hIL8
T1 sequence (P10145 23-99 limits assumed): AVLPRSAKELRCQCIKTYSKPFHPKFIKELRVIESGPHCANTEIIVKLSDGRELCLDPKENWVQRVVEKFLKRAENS
The reply should be a number in s⁻¹, with the unit left off.

Determine its reported koff: H1047/L0395 (antibody, human IgG1, kappa, name in Kabat numbering, V domains shown) VH: QVQLVESGGGLVQPGGSLRLSCAASGFTFDKYYLSWVRQAPGKGLEWVGLIRNKDNGYTPEYSASVKGRFTISRDDSKNSLYLTMSDLKTEDTAVYYCARENHRYDVELAYWGQGTLVTVSS VL: DIQMTQSPSSLSASVGDRVTITCRASEIIYSYLAWYQQKPGKAPKLLIYKAKTHADGVPSRFSGSGSGTDFTFTISSLQPEDIATYYCKHHFGFPRTFGQGTKVEIKR
0.006

# return recorded koff for input H1037/L0395 (antibody, human IgG1, kappa, name in Kabat numbering, V domains shown) VH: QVQLVESGGGLVQPGGSLRLSCAASGFTFDKYYLSWVRQAPGKGLEWVGLIRNKDNYHHPEYSASVKGRFTISRDDSKNSLYLTMSDLKTEDTAVYYCARENHRYDVELAYWGQGTLVTVSS VL: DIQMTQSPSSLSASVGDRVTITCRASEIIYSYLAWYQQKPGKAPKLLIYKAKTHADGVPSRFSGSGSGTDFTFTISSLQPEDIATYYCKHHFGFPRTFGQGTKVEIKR
0.015
